Test system: HCT-15
Would you mind telling me the reported GI50 of each entry?

Consider the worked cases shown below.
# MOLECULE, GI50
measured = [
    ("CC[C@@]1(C[C@H]2C[C@@]3(C(=O)OC)c4[nH]c5ccccc5c4CCN3C2=S)COC2(CCCCC2)O1", "5.57 µM"),
    ("O=[N+]([O-])c1ccc2c(c1)Sc1ccccc1N2CCCCCl", "> 100 µM"),
    ("COc1ccc(N2CCOCC2)cc1", "> 100 µM"),
    ("CC(C)(c1cn(Cc2ccccc2)c2ccccc12)c1cn(Cc2ccccc2)c2ccccc12", "> 100 µM"),
]

Consider the following items and state reported GI50 for each.
1. COc1ccc(OC)c2cc(Cc3ccc(N(C)C)cc3)c(=O)c(Cc3ccc(N(C)C)cc3)cc12
2. COc1ccc(OC)c2c1C1CCC(=O)N1CN2C(C)=O (centres undefined)

result:
1: > 100 µM; 2: > 100 µM
